Tested on: ATP;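 further: ATP exposure 15 min at 22 °C before imaging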
Experiment: switch fluorescence ratio, 500 uM ATP over buffer (Cy3 cluster intensity, sum of 5 cycles each) (fold (ratio)); higher = stronger signal-on switching upon ATP binding; sequences stand for … in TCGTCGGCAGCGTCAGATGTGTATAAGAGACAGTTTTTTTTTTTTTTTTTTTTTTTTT…TC
Conditions: aptamer strand: ATP DNA aptamer (quencher-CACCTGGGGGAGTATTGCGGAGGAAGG + anchor), 100 nM annealed; ATP concentration: 500 uM
switch fluorescence ratio overview
Answer with the value's number alone.

| SEQUENCE DATA | TESTED SYSTEM | REPORTED RESULT |
| --- | --- | --- |
| GATGAGGTTC | ATP | 0.967 |
| TCGGACTAGG | ATP | 1 |
| TGGTTTATTC | ATP | 0.986 |
| GGCGTAGTCA | ATP | 0.986 |
| GCCAGGATTG | ATP | 1.02 |
| ACGGGAGCTT | ATP | 1.03 |
| AAAGGGTTGG | ATP | 1.02 |
| GTGAAAGTTT | ATP | 0.998 |
| GCGTTTAGGG | ATP | 1.03 |
| TTCTCCGGTT | ATP | 1.31 |

Entry GGGTCACAAA has what switch fluorescence ratio? 0.978

Repeat for the following sequence: TACTAGTACA 1.09

Same thing, different sequence: ATAGCTTGTA 0.995

Lookup TTGGCATACT 2.64
